Value source: patent US7763617B2

Molecular target: PDE4Bcat (Homo sapiens, UniProt Q07343)
Construct: catalytic domain (indicated as “cat,” hereinafter), PDE4Bcat
Sequence (Q07343 330-659 limits assumed): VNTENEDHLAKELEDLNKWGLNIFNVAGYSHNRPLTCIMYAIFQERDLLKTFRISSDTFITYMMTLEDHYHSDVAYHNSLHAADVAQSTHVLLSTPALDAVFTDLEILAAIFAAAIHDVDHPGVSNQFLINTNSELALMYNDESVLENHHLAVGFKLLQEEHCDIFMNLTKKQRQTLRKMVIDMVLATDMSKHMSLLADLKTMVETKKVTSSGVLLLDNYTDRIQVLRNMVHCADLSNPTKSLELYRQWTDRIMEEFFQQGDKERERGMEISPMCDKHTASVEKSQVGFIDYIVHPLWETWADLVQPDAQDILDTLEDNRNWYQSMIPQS
Test: Inhibition of phosphodiesterase activity, [3H]-cAMP hydrolysis, recombinant PDE4Bcat
Settings: cAMP 2 μmol/L, read-out: IC50(μmol/L) PDE4
Quick list: IC50 per entry.

Worked cases, IC50 given:
{"columns": ["COMPOUND", "IC50"],
 "data": [
  ["CCc1cc2c(C3=NNC(=O)CC3C)cc(Cl)cn2n1 (single isomer, unassigned; (+)) [Example 313]", "1 to 10 µmol/L"],
  ["CCc1nn2c(S(C)(=O)=O)ccc(C3=NNC(=O)CC3C)c2c1O (stereo not shown)", "1 to 10 µmol/L"],
  ["CCc1cc2c(-c3ccc(=O)[nH]n3)ccc(OC)n2n1", "1 to 10 µmol/L"]
]}

What is its IC50 for PDE4Bcat (Homo sapiens, UniProt Q07343)? Entry: COc1ccc(C2=NNC(=O)CC2C)c2cc(CF)nn12 (stereo not shown)
0.1 to 1 µmol/L

What is its IC50 for PDE4Bcat (Homo sapiens, UniProt Q07343)? Entry: COc1ccc(-c2cc(C)c(=O)n(Cc3cccnc3)n2)c2cc(C(C)C)nn12
< 1 µmol/L

What is its IC50 for PDE4Bcat (Homo sapiens, UniProt Q07343)? Entry: COc1ccc(-c2ccc(=O)n(Cc3ccccc3)n2)c2c(C(=O)O)c(C(C)C)nn12
1 to 10 µmol/L

What is its IC50 for PDE4Bcat (Homo sapiens, UniProt Q07343)? Entry: CCc1cc2c(C3=NNC(=O)CC3C)ccc([S+](C)[O-])n2n1 (stereo not shown)
< 1 µmol/L

What is its IC50 for PDE4Bcat (Homo sapiens, UniProt Q07343)? Entry: CCc1cc2c(C3=NNC(=O)CC3C)ccc(SC)n2n1 (stereo not shown)
0.1 to 1 µmol/L

What is its IC50 for PDE4Bcat (Homo sapiens, UniProt Q07343)? Entry: CCc1nn2cc(Cl)cc(C3=NNC(=O)CC3C)c2c1Cl (stereo not shown)
0.1 to 1 µmol/L

What is its IC50 for PDE4Bcat (Homo sapiens, UniProt Q07343)? Entry: CCc1cc2c(C3=NN(Cc4cccnc4)C(=O)CC3C)cc(Cl)cn2n1 (stereo not shown)
1 to 10 µmol/L

What is its IC50 for PDE4Bcat (Homo sapiens, UniProt Q07343)? Entry: COc1ccc(C2=NNC(=O)CC2C)c2cc(CO)nn12 (stereo not shown)
1 to 10 µmol/L

What is its IC50 for PDE4Bcat (Homo sapiens, UniProt Q07343)? Entry: COc1ccc(C2=NNC(=O)CC2)c2cc(C(F)(F)F)nn12
0.1 to 1 µmol/L

What is its IC50 for PDE4Bcat (Homo sapiens, UniProt Q07343)? Entry: CCc1cc2c(C3=NNC(=O)CC3C)ccc(OC)n2n1 (single isomer, unassigned; (+)) [Example 315]
1 to 10 µmol/L

What is its IC50 for PDE4Bcat (Homo sapiens, UniProt Q07343)? Entry: COc1ccc(-c2n[nH]c(=O)cc2C)c2c(F)c(C(C)C)nn12
0.1 to 1 µmol/L

---

Biological target: PDE10A1 (Homo sapiens)
Sequence (Q9Y233 1-779 isoform Q9Y233-1): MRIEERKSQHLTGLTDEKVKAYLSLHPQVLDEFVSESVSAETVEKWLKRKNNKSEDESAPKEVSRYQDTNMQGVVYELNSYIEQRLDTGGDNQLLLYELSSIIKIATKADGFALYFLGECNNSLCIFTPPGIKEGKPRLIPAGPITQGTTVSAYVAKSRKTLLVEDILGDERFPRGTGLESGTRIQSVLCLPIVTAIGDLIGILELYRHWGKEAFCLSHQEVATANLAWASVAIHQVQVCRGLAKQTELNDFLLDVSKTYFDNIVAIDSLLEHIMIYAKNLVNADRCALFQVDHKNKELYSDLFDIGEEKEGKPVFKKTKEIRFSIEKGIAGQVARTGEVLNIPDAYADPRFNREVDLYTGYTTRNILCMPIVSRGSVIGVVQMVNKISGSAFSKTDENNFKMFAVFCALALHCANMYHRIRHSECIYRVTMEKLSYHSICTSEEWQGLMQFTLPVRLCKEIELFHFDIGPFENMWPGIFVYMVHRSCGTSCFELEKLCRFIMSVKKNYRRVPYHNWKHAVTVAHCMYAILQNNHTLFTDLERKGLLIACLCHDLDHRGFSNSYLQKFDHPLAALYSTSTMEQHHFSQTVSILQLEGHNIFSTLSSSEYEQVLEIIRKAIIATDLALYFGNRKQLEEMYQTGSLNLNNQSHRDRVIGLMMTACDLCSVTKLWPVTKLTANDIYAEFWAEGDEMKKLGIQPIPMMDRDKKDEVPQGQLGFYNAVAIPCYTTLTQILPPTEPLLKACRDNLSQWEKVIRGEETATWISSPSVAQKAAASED
Assay: Inhibition of phosphodiesterase activity, [3H]-cAMP hydrolysis, recombinant PDE10A1
Conditions: human recombinant PDE10A1, cAMP 0.2 μmol/L; read-out: IC50(μmol/L) PDE10
pIC50: −log10 of the molar value.
READOUT_KIND: pIC50

Worked cases, pIC50 given:
{"columns": ["COMPOUND", "pIC50"],
 "data": [
  ["CCc1cc2c(C3=NNC(=O)CC3)cc(Cl)cn2n1 [Example 202]", "5.00 to 6.00"],
  ["COc1ccc(C2=NN(Cc3cccnc3)C(=O)CC2)c2cc(C(C)C)nn12 [Example 285]", "5.00 to 6.00"],
  ["COc1ccc(-c2cc(C)c(=O)[nH]n2)c2cc(C(C)C)nn12 [Example 278]", "< 5.00"],
  ["CCc1cc2c(C3=NNC(=O)CC3C)ccc(OC)n2n1 (single isomer, unassigned; (+)) [Example 315]", "5.00 to 6.00"],
  ["CCc1cc2c(-c3ccc(=O)[nH]n3)ccc(OC)n2n1 [Example 306]", "< 5.00"]
]}

Tell me the measured pIC50 of COC(=O)c1c(C(C)C)nn2c(OC)ccc(-c3ccc(=O)n(Cc4ccccc4)n3)c12 [Example 266] , please.
< 5.00

Tell me the measured pIC50 of COc1ccc(-c2ccc(=O)n(Cc3cccnc3)n2)c2cc(C(C)C)nn12 [Example 273] , please.
5.00 to 6.00

---

System: histamine-induced bronchoconstriction
Assay: Histamine-induced bronchoconstriction in guinea pigs
Format: in vivo, guinea pig
Settings: Cavia porcellus, iv, 0.5 min; values in brackets: test compound 0.1 mg/kg, i.v., 30 seconds after administration, histamine 12.5 μg/kg i.v.
Quick list: inhibition in vivo at 0.1 mg/kg per entry.

{"columns": ["MOLECULE", "ENDPOINT_VALUE"],
 "data": [
  ["CCc1nn2c([S+](C)[O-])ccc(C3=NNC(=O)CC3C)c2c1O (stereo not drawn) [Example 250]", "≥ 90%"],
  ["COc1ccc(C2=NNC(=O)CC2C)c2cc(C3CC3)nn12 (stereo not drawn) [Example 218]", "≥ 90%"],
  ["CCc1cc2c(C3=NNC(=O)CC3C)cc(Cl)cn2n1 (single isomer, unassigned; (-)) [Example 314]", "80 to 90%"],
  ["CCCc1cc2c(C3=NNC(=O)CC3C)ccc(OC)n2n1 (stereo not drawn) [Example 217]", "≥ 90%"],
  ["CCc1cc2c(C3=NNC(=O)CC3C)ccc(NCCO)n2n1 (stereo not drawn) [Example 247]", "70 to 80%"],
  ["CCc1cc2c(C3=NNC(=O)CC3C)ccc(OC)n2n1 (single isomer, unassigned; (+)) [Example 315]", "≥ 90%"],
  ["CCc1cc2c(C3=NNC(=O)CC3C)ccc([S+](C)[O-])n2n1 (stereo not drawn) [Example 249]", "≥ 90%"],
  ["COc1ccc(C2=NNC(=O)CC2C)c2cc(SC)nn12 (stereo not drawn) [Example 219]", "≥ 90%"]
]}

Tell me the measured inhibition in vivo at 0.1 mg/kg of COc1ccc(C2=NNC(=O)CC2C)c2cc(C(C)=O)nn12 (stereo not drawn) [Example 241] , please.
≥ 90%

---

Biological target: PDE3A catalytic domain (PDE3Acat) (Homo sapiens)
Construct: cDNA fragments of PDE3A catalytic domain (indicated as “cat,” hereinafter); made in house; host or cells: Sf9 insect cells (baculovirus, Bac-to-Bac)
Sequence (Q14432 674-1093 limits assumed): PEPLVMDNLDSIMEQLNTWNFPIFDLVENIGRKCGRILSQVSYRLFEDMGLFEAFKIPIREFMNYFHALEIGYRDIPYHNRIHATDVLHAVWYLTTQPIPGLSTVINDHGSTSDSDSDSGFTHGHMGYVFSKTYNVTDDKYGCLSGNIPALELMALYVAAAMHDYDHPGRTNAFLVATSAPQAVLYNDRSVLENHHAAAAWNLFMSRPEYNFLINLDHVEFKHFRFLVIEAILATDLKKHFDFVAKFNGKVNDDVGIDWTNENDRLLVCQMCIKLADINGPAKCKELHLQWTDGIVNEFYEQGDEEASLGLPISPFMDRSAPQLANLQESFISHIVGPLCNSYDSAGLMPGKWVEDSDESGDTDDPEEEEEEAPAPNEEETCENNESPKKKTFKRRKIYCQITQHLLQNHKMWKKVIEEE
Experiment: Inhibition of phosphodiesterase activity, [3H]-cAMP hydrolysis, recombinant PDE3Acat
Format: biochemical
Conditions: human recombinant PDE3Acat, cAMP 2 μmol/L; read-out: IC50(μmol/L) PDE3
pIC50: −log10 of the molar value.
Quick list: pIC50 per entry.

{"columns": ["COMPOUND", "pIC50"],
 "data": [
  ["CCc1cc2c(C3=NNC(=O)CC3C)cc(Cl)cn2n1 (single isomer, unassigned; (-)) [Example 314]", "< 5.00"],
  ["COc1ccc(-c2ccc(=O)n(Cc3ccccc3)n2)c2c(C(=O)O)c(C(C)C)nn12", "< 5.00"]
]}

What is its pIC50 for PDE3A catalytic domain (PDE3Acat) (Homo sapiens)? Entry: COc1ccc(C2=NNC(=O)CC2)c2cc(C(F)(F)F)nn12
< 5.00

What is its pIC50 for PDE3A catalytic domain (PDE3Acat) (Homo sapiens)? Entry: CCc1cc2c(C3=NNC(=O)CC3C)ccc(-c3ccccc3)n2n1 (stereo not drawn)
5.00 to 6.00

What is its pIC50 for PDE3A catalytic domain (PDE3Acat) (Homo sapiens)? Entry: CCc1cc2c(-c3ccc(=O)[nH]n3)cccn2n1
5.00 to 6.00

What is its pIC50 for PDE3A catalytic domain (PDE3Acat) (Homo sapiens)? Entry: CCc1cc2c(C3=NNC(=O)CC3C)ccc(S(C)(=O)=O)n2n1 (stereo not drawn)
5.00 to 6.00

What is its pIC50 for PDE3A catalytic domain (PDE3Acat) (Homo sapiens)? Entry: CCc1nn2cc(Cl)cc(C3=NNC(=O)CC3C)c2c1Cl (stereo not drawn)
< 5.00

What is its pIC50 for PDE3A catalytic domain (PDE3Acat) (Homo sapiens)? Entry: COc1ccc(C2=NN(Cc3cccnc3)C(=O)CC2)c2cc(C(C)C)nn12
< 5.00

What is its pIC50 for PDE3A catalytic domain (PDE3Acat) (Homo sapiens)? Entry: COc1ccc(C2=NNC(=O)CC2C)c2cc(CF)nn12 (stereo not drawn)
5.00 to 6.00

---

Target: PDE10A1 (Homo sapiens)
Assay: Inhibition of phosphodiesterase activity, [3H]-cAMP hydrolysis, recombinant PDE10A1
Conditions: human recombinant PDE10A1, cAMP 0.2 μmol/L; read-out: IC50(μmol/L) PDE10
Quick list: IC50 per entry.

Worked cases, IC50 given:
{"columns": ["COMPOUND", "READOUT_KIND", "ENDPOINT_VALUE"],
 "data": [
  ["CCc1cc2c(C3=NNC(=O)CC3)ccc(OC)n2n1", "IC50", "> 10 µmol/L"],
  ["COc1ccc(C2=NNC(=O)CC2C)c2cc(C(F)(F)F)nn12 (stereo not shown) [205(211)]", "IC50", "1 to 10 µmol/L"]
]}

Tell me the measured IC50 of CCc1cc2c(-c3ccc(=O)[nH]n3)cccn2n1 , please.
> 10 µmol/L

Tell me the measured IC50 of COc1ccc(C2=NNC(=O)CC2C)c2cc(C(F)(F)F)nn12 (single isomer, unassigned; (+)) [Example 317] , please.
1 to 10 µmol/L
